# Condition Details: PAMPA
Starred links: 1 amine or outer side, 2 acyl side, 3 side chain; linkers in the order of their positions; H or OH if unused. Positions of bridges follow the written chain, without caps; N, C: chain ends. Non-standard residues stand in square brackets, D forms with d. Residues, ends and D or L forms follow the SMILES beside them. X1 = O=C([C@]1(CC=[*:3])CCCN1[*:1])[*:2]; S5 = C=CCCC[C@](C)(N)C(=O)O
Listed here are compounds together with their documented % Retention.

Compound	% Retention
CNC(=O)[C@H](Cc1ccc(O)cc1)NC(=O)[C@H](CCC(N)=O)NC(=O)[C@H](CC(C)C)NC(=O)[C@H](CC(C)C)NC(=O)[C@H](Cc1ccc(O)cc1)NC(=O)[C@]1(C)CCCC=CC[C@]2(CCCN2C(C)=O)C(=O)N[C@@H](CC(C)C)C(=O)N[C@@H](CC(C)C)C(=O)N1 [PLL5-3] (Ac-[X1]LL[S5]YLLQY-NHMe; staple 1-4)	83 ± 1%
CNC(=O)[C@H](Cc1ccc(O)cc1)NC(=O)[C@@H](NC(=O)[C@H](CC(C)C)NC(=O)[C@H](CC(C)C)NC(=O)[C@H](CC(N)=O)NC(=O)[C@]1(C)CCCC=CC[C@]2(CCCN2)C(=O)N[C@@H](CCCCN)C(=O)N[C@@H](CC(C)C)C(=O)N1)[C@@H](C)O (single isomer, unassigned) [PLL4-5 variant 1]	52 ± 8%

====

# Test Details: in vitro
# Design: dose or concentration left out as unconfirmed
# Condition Details: PAMPA, pH 7.4, PAMPA Pe
Starred links: 1 amine or outer side, 2 acyl side, 3 side chain; linkers in the order of their positions; H or OH if unused. Positions of bridges follow the written chain, without caps; N, C: chain ends. Non-standard residues stand in square brackets, D forms with d. Residues, ends and D or L forms follow the SMILES beside them. X1 = O=C([C@]1(CC=[*:3])CCCN1[*:1])[*:2]; Ala(cPr) = N[C@@H](CC1CC1)C(=O)O; S5 = C=CCCC[C@](C)(N)C(=O)O
Listed here are compounds together with their documented Papp at 5 h.

Compound	Papp at 5 h
CNC(=O)[C@H](CC(=O)O)NC(=O)[C@H](CCC(N)=O)NC(=O)[C@H](CC(C)C)NC(=O)[C@H](CC(C)C)NC(=O)[C@H](Cc1ccc(O)cc1)NC(=O)[C@]1(C)CCCC=CCCC[C@](C)(NC(C)=O)C(=O)N[C@@H](C)C(=O)N[C@@H](CC2CC2)C(=O)N[C@@H](CC(C)C)C(=O)N1 [PLL7-7 variant 4] (Ac-[S5]A[Ala(cPr)]L[S5]YLLQD-NHMe; staple 1-5)	≤ 0.1 ×10⁻⁶ cm/s
CNC(=O)[C@H](Cc1ccc(O)cc1)NC(=O)[C@H](CC(=O)O)NC(=O)[C@H](CC(C)C)NC(=O)[C@H](CC(C)C)NC(=O)[C@H](Cc1ccc(O)cc1)NC(=O)[C@]1(C)CCCC=CC[C@]2(CCCN2C(C)=O)C(=O)N[C@@H](CC(C)C)C(=O)N[C@@H](CC(C)C)C(=O)N1 [PLL5-1] (Ac-[X1]LL[S5]YLLDY-NHMe; staple 1-4)	≤ 0.1 ×10⁻⁶ cm/s
CNC(=O)[C@H](CC(=O)O)NC(=O)[C@H](CC(=O)O)NC(=O)[C@H](CC(C)C)NC(=O)[C@H](CC(C)C)NC(=O)[C@H](Cc1ccc(O)cc1)NC(=O)[C@]1(C)CCCC=CC[C@]2(CCCN2C(C)=O)C(=O)O[C@@H](CC(C)C)C(=O)N[C@@H](CC(C)C)C(=O)N1 (single isomer, unassigned)	≤ 0.1 ×10⁻⁶ cm/s

====

# Test Details: in vitro
# Parameters: dose or concentration left out as unconfirmed
# Condition Details: PAMPA, pH 7.4, PAMPA Pe
Positions of bridges follow the written chain, without caps; N, C: chain ends. Non-standard residues stand in square brackets, D forms with d. Residues, ends and D or L forms follow the SMILES beside them. S5 = C=CCCC[C@](C)(N)C(=O)O

Compound	Papp at 5 h
CNC(=O)[C@H](CC(=O)O)NC(=O)[C@H](Cc1c[nH]cn1)NC(=O)[C@H](CC(C)C)NC(=O)[C@H](CC(C)C)NC(=O)[C@H](CCCNC(=N)N)NC(=O)[C@]1(C)CCCC=CCCC[C@](C)(NC(C)=O)C(=O)N[C@@H](C)C(=O)N[C@@H](CC(C)C)C(=O)N[C@@H](CC(C)C)C(=O)N1 [PLL7-9 variant 4] (Ac-[S5]ALL[S5]RLLHD-NHMe; staple 1-5)	≤ 0.1 ×10⁻⁶ cm/s
CNC(=O)[C@H](CC(=O)O)NC(=O)[C@H](Cc1c[nH]cn1)NC(=O)[C@H](CC(C)C)NC(=O)[C@H](CC(C)C)NC(=O)[C@H](CCCNC(=N)N)NC(=O)[C@]1(C)CCCC=CC[C@]2(CCCN2)C(=O)N[C@@H](CC(C)C)C(=O)N[C@@H](CC(C)C)C(=O)N1 (single isomer, unassigned)	≤ 0.1 ×10⁻⁶ cm/s
CCCC[C@H](NC(=O)[C@H](CC(C)C)NC(=O)[C@]1(C)CCCC=CC[C@]2(CCCN2C(C)=O)C(=O)N[C@@H](C)C(=O)N[C@@H](CC(C)C)C(=O)N1)C(=O)N[C@@H](CC(C)C)C(=O)N[C@@H](C)C(=O)N[C@@H](Cc1ccc(O)cc1)C(=O)NC (single isomer, unassigned)	≤ 0.1 ×10⁻⁶ cm/s

====

Listed here are compounds together with their documented EC50.
# System Under Test: ERβ LBD (Homo sapiens, UniProt Q92731)
# Construct: pET28a+ vector containing ERβ LBD (residues from 261 to 500) along with an N-terminal His6-yBBr-TEV tag; His6 (N); yBBr (N); TEV cleavage site (N); made in house; host or cells: E. coli BL21(DE3) pLysS
# Sequence (Q92731 261-500, species assumed): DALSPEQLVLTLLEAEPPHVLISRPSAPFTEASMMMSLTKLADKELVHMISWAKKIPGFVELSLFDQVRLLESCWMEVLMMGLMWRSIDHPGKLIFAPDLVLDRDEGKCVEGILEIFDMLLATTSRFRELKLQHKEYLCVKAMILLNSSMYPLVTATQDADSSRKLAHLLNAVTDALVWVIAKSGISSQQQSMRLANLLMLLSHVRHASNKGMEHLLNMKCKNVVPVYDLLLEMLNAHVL
# Test Details: Competition fluorescence polarization (FP) binding assay with FITC-ERL4 probe
# Condition Details: binding towards the ERβ LBD; read-out: EC50
# Experimental: In addition to the PAMPA assay, to study the affinity of the first-generation ProLock™ stapled peptides to the Estrogen receptor p ligand-binding domain (ERβ LBD), a fluorescence polarization (FP) binding assay in competition format was used in the presence of the endogenous ERβ LBD ligand estradiol. Competition Fluorescence Polarization (FP) assay was performed on the peptides to determine their half-maximal effective concentration (EC50). […]
Starred links: 1 amine or outer side, 2 acyl side, 3 side chain; linkers in the order of their positions; H or OH if unused. Positions of bridges follow the written chain, without caps; N, C: chain ends. Non-standard residues stand in square brackets, D forms with d. Residues, ends and D or L forms follow the SMILES beside them. X1 = O=C([C@]1(CC=[*:3])CCCN1[*:1])[*:2]; Ala(cPr) = N[C@@H](CC1CC1)C(=O)O; S5 = C=CCCC[C@](C)(N)C(=O)O

Compound	System Under Test	EC50
CNC(=O)[C@H](CC(=O)O)NC(=O)[C@H](CCC(N)=O)NC(=O)[C@H](CC(C)C)NC(=O)[C@H](CC(C)C)NC(=O)[C@H](Cc1ccc(O)cc1)NC(=O)[C@]1(C)CCCC=CC[C@]2(CCCN2C(C)=O)C(=O)N[C@@H](CC2CC2)C(=O)N[C@@H](CC(C)C)C(=O)N1 [PLL7-7] (Ac-[X1][Ala(cPr)]L[S5]YLLQD-NHMe; staple 1-4)	ERβ LBD (Homo sapiens, UniProt Q92731)	800 to 1300 nM
CNC(=O)[C@H](CC(=O)O)NC(=O)[C@H](CC(=O)O)NC(=O)[C@H](CC(C)C)NC(=O)[C@H](CC(C)C)NC(=O)[C@H](Cc1ccc(O)cc1)NC(=O)[C@]1(C)CCCC=CC[C@]2(CCCN2C(C)=O)C(=O)N[C@@H](CC(C)C)C(=O)N[C@@H](CC(C)C)C(=O)N1 [PLL5-2] (Ac-[X1]LL[S5]YLLDD-NHMe; staple 1-4)	ERβ LBD (Homo sapiens, UniProt Q92731)	800 to 1300 nM
CNC(=O)[C@H](CC(=O)O)NC(=O)[C@H](Cc1c[nH]cn1)NC(=O)[C@H](CC(C)C)NC(=O)[C@H](CC(C)C)NC(=O)[C@H](CCCNC(=N)N)NC(=O)[C@]1(C)CCCC=CC[C@]2(CCCN2C(C)=O)C(=O)N[C@@H](CC(C)C)C(=O)N[C@@H](CC(C)C)C(=O)N1 [PLL7-9] (Ac-[X1]LL[S5]RLLHD-NHMe; staple 1-4)	ERβ LBD (Homo sapiens, UniProt Q92731)	800 to 1300 nM

====

# Condition Details: PAMPA
Starred links: 1 amine or outer side, 2 acyl side, 3 side chain; linkers in the order of their positions; H or OH if unused. Positions of bridges follow the written chain, without caps; N, C: chain ends. Non-standard residues stand in square brackets, D forms with d. Residues, ends and D or L forms follow the SMILES beside them. X1 = O=C([C@]1(CC=[*:3])CCCN1[*:1])[*:2]; S5 = C=CCCC[C@](C)(N)C(=O)O
Lab note: cut-off is 90%. Strictly less in % Retention is true (1). Exactly 90% or more is false (0).

Compound	Label Class
CNC(=O)[C@H](CCC(N)=O)NC(=O)[C@H](CC(C)C)NC(=O)[C@H](CC(C)C)NC(=O)[C@H](Cc1ccc(O)cc1)NC(=O)[C@]1(C)CCCC=CC[C@]2(CCCN2C(C)=O)C(=O)N[C@@H](CC(C)C)C(=O)N[C@@H](CC(C)C)C(=O)N1 [PLL5-12, Ac-PL3-Leu-Leu-S5-Tyr-Leu-Leu-Gln-NHMe] (Ac-[X1]LL[S5]YLLQ-NHMe; staple 1-4)	false (0)
CNC(=O)[C@H](Cc1ccc(O)cc1)NC(=O)[C@@H](NC(=O)[C@H](CC(C)C)NC(=O)[C@H](CC(C)C)NC(=O)[C@H](CC(N)=O)NC(=O)[C@]1(C)CCCC=CCCC[C@](C)(NC(C)=O)C(=O)N[C@@H](C)C(=O)N[C@@H](CCCCN)C(=O)N[C@@H](CC(C)C)C(=O)N1)[C@@H](C)O [PLL4-5 variant 4] (Ac-[S5]AKL[S5]NLLTY-NHMe; staple 1-5)	true (1)
CNC(=O)[C@H](CC(=O)O)NC(=O)[C@H](Cc1c[nH]cn1)NC(=O)[C@H](CC(C)C)NC(=O)[C@H](CC(C)C)NC(=O)[C@H](CCCNC(=N)N)NC(=O)[C@]1(C)CCCC=CC[C@]2(CCCN2C(C)=O)C(=O)N[C@@H](CC(C)C)C(=O)N[C@@H](CC(C)C)C(=O)N1 [PLL7-9] (Ac-[X1]LL[S5]RLLHD-NHMe; staple 1-4)	true (1)
CNC(=O)[C@H](CC(=O)O)NC(=O)[C@H](CCC(N)=O)NC(=O)[C@H](CC(C)C)NC(=O)[C@H](CC(C)C)NC(=O)[C@H](Cc1ccc(O)cc1)NC(=O)[C@]1(C)CCCC=CC[C@]2(CCCN2)C(=O)N[C@@H](CC2CC2)C(=O)N[C@@H](CC(C)C)C(=O)N1 (single isomer, unassigned) [PLL7-7 variant 1]	true (1)

All figures here come from patent US20230357320A1.
